- assay: enzyme screen for hydrolysis/methanolysis of butyl-KLG (HPLC of products and remaining substrate)
- Assay type: biochemical
- details: Table 8: 38° C., 21 Hours, 8.6% Methanol-Water, 0.2 M MES
endpoint: BuKLG (remaining substrate)

Item Mucor meihei Lipase: Mucor meihei Lipase (protein, UniProt P19515 95-363, looked up) Lipase: SIDGGIRAATSQEINELTYYTTLSANSYCRTVIPGATWDCIHCDATEDLKIIKTWSTLIYDTNAMVARGDSEKTIYIVFRGSSSIRNWIADLTFVPVSYPPVSGTKVHKGFLDSYGEVQNELVATVLDQFKQYPSYKVAVTGHSLGGATALLCALDLYQREEGLSSSNLFLYTQGQPRVGDPAFANYVVSTGIPYRRTVNERDIVPHLPPAAFGFLHAGEEYWITDNSPETVQVCTSDLETSDCSNSIVPFTSVLDHLSYFGINTGLCT : provide BuKLG (remaining substrate)
7067 ppm
